Assay: Caco-2 bidirectional permeability
Assay type: in vitro ADME, human
Conditions: human, Caco-2; (Papp B − A)/(Papp A − B)
Where a name gives a salt, the structure may show the parent alone.
parameter-measured: efflux ratio at 2 h
The answer should be a number; do not append a unit.

Endpoint output: efflux ratio at 2 h of O=C([O-])c1cccc(S(=O)(=O)O)c1.[Na+] [Sodium 3-sulfobenzoate, reference compound] . Value? 1

Need efflux ratio at 2 h, item CCC(COC(=O)c1cc(OC)c(OC)c(OC)c1)(c1ccccc1)N(C)C (centres unmarked) [Example 22, trimebutine 4-toluenesulfonate salt] 0.9

* * *

Test: Caco-2 bidirectional permeability
Assay type: in vitro ADME, human
Conditions: human, Caco-2, class from Papp A-B; read-out: Permeability
Procedure: Such a procedure helps understanding the suitability of the compound for oral dosing by measuring the rate of transport of the molecule across the Caco-2 cells, which have characteristics that resemble intestinal epithelial cells. […] The permeability coefficient (Papp) is calculated from the equation: […]
Counter-ions that a name gives are not always drawn.
# Papp A→B at 2 h annotations

O=C([O-])c1cccc(S(=O)(=O)O)c1.[Na+] [Sodium 3-sulfobenzoate, reference compound]: < 1 ×10⁻⁶ cm/s

Kindly consider the entry below.
What does the data say about its Papp A→B at 2 h? Entry: CCC(COC(=O)c1cc(OC)c(OC)c(OC)c1)(c1ccccc1)N(C)C (centres unmarked) [Example 22, trimebutine 4-toluenesulfonate salt] > 1 ×10⁻⁶ cm/s

* * *

Catalogue of Papp B→A at 2 h values
Assay: Caco-2 bidirectional permeability
Type: in vitro ADME, human
Conditions: human, Caco-2; basolateral to apical, 2-hr
Where a name gives a salt, the structure may show the parent alone.
State the answer as a number, implicitly in ×10⁻⁶ cm/s.

CCC(COC(=O)c1cc(OC)c(OC)c(OC)c1)(c1ccccc1)N(C)C (centres unmarked) [Example 22, trimebutine 4-toluenesulfonate salt]: 21.7

API: the following record is the query input.
Data request, read-out Papp B→A at 2 h, for O=C([O-])c1cccc(S(=O)(=O)O)c1.[Na+] [Sodium 3-sulfobenzoate, reference compound] 0.59

* * *

Reported melting point values follow for various compounds
Counter-ions that a name gives are not always drawn.
Kindly provide the numeric value in °C only, without the unit symbol.

Some entries whose results are on file:
O=S(=O)(O)c1cccnc1: 119
NC(=O)c1cccc(S(=O)(=O)O)c1 (as salt: potassium): 223
N#Cc1cccc(S(=O)(=O)O)c1: 129

Moving on to another compound below.
I have this compound here, `O=S(=O)(O)c1ccccn1` , and I need its recorded melting point. 131

* * *

Experiment: Caco-2 bidirectional permeability
Type: in vitro ADME, human
Settings: human, Caco-2; basolateral to apical, 2-hr; read-out: % Recovery B − A
Method: Such a procedure helps understanding the suitability of the compound for oral dosing by measuring the rate of transport of the molecule across the Caco-2 cells, which have characteristics that resemble intestinal epithelial cells. […] The permeability coefficient (Papp) is calculated from the equation: […]
Structures can show the parent of a compound that is named as a salt.
parameter-measured: recovery at 2 h (%)
Numeric answer only, unit % assumed.

CCC(COC(=O)c1cc(OC)c(OC)c(OC)c1)(c1ccccc1)N(C)C (centres unmarked) [Example 22, trimebutine 4-toluenesulfonate salt]: 76

// next item, recovery at 2 h requested
Could you share which recovery at 2 h value was measured for O=C([O-])c1cccc(S(=O)(=O)O)c1.[Na+] [Sodium 3-sulfobenzoate, reference compound] ? 115
